Compiled notes: published Ki values involving UniProt:P43166.
The response must be a number in nM with no trailing unit.

Request: Ki, test system UniProt:P43166, entry "CC(=O)O[C@H]1[C@@H](OC(C)=O)[C@@H](CO)O[C@@H]([Se]c2ccc(S(N)(=O)=O)cc2)[C@@H]1OC(C)=O"
0.8

# repeat for "O=C1Nc2ccc(C(=O)O)cc2S(=O)(=O)N1"
4960

Query "NS(=O)(=O)c1cc(C(=O)Nc2ccc([Se][C@@H]3O[C@H](CO)[C@H](O)[C@H](O)[C@H]3O)cc2)ccc1Cl" next
29.7

Try the compound "O=S(=O)(NCc1ccccc1)NCc1ccccc1"
380

Can you check Nc1ccc(S(=O)(=O)NC2NN=C(S(N)(=O)=O)S2)cc1 (centres undefined) next?
7

Consider next the compound "NS(=O)(=O)c1ccc(CNC(=O)CN2C(=O)NC3(CCCCC3)C2=O)cc1" in the same way.
5.4

Please give the result for "NS(=O)(=O)c1ccc(S(=O)(=O)[C@@H]2O[C@H](CO)[C@@H](O)[C@H](O)[C@H]2O)cc1" too.
2.2

Next compound: "NS(=O)(=O)c1ccc(CCNC(=O)Cc2cccs2)cc1"
7.6

Also "Cc1cn([C@H]2C[C@@H](n3cc(COc4ccc(S(N)(=O)=O)cc4)nn3)[C@@H](CO)O2)c(=O)[nH]c1=O" ?
51.6

----------
This section presents Ki values reported for Carbonic anhydrase 7 (Homo sapiens) in the literature.
Rule for this label: TRUE means Ki is less than 600 nM; FALSE means Ki is at least 600 nM.

Ki strictly < 600 nM for this compound? "Cc1ccc2c(c1)S(=O)(=O)NC(=O)N2"
FALSE

// next record "CC(=O)/C(=N\Nc1cccc([N+](=O)[O-])c1)C(=O)Nc1ccc(S(N)(=O)=O)cc1"
FALSE

Thanks! And "CCOC(=O)c1cc2cc(CO)ccc2oc1=O" ?
TRUE

Okay, and "Cn1nc(S(N)(=O)=O)sc1=N" ?
TRUE

Also "COC(=O)[C@H](C)NS(=O)(=O)NC(=O)OC(C)(C)C" , if possible.
FALSE

Others:
Please state whether Ki is below 600 nM for "O=C(/C=C/c1ccc(O)cc1)OCc1ccccc1"
FALSE

And the next one, "Nc1cccc(O)c1" ?
FALSE

Try this compound next: "O=C1C=CC[C@H](C[C@H](F)CCc2ccc(O)cc2)O1"
FALSE

Follow-up entry: "NS(=O)(=O)c1nnc(NC(=O)CC23CC4CC(CC(C4)C2)C3)s1"
TRUE

Can you check "CCCC(CCC)CN(C(=O)OC(C)(C)C)S(=O)(=O)NCCC(=O)OC" next?
FALSE

Again, but for "O=C1Nc2ccc(F)cc2S(=O)(=O)N1"
TRUE

Would you kindly repeat that for "COc1cc2oc(=O)ccc2cc1O" ?
FALSE

Please answer likewise for "CN1C(=O)NS(=O)(=O)c2ccccc21"
FALSE

Same read-out for "COC(=O)CCNS(=O)(=O)NCCC(=O)OC" ?
FALSE

----------
Compiled pKi measurements on Carbonic anhydrase 7 (Homo sapiens) taken from the literature.
As a rule, pKi stands for the negative log10 of the concentration, concentration in M.

Reported pKi for "CCOc1ccc2ccc(=O)oc2c1" : what is it?
5.14

Also, "Nc1ccc(S(N)(=O)=O)cc1Cl" please.
6.92

How about this molecule: "CC(=O)OC[C@H]1O[C@@H]([Se]c2ccc(NC(=S)Nc3ccc(S(N)(=O)=O)cc3)cc2)[C@H](OC(C)=O)[C@@H](OC(C)=O)[C@H]1OC(C)=O"
8.70

Same thing, different molecule: "NS(=O)(=O)c1ccc(NC(=O)Cc2cccs2)cc1"
8.21

What do we get for "Nc1oc2ccc(Cl)cc2c(=O)c1-c1ccc(Cl)cc1" ?
5.10

Same question, "Cc1ccc(S(=O)(=O)NC(=O)Nc2ccc(S(N)(=O)=O)nc2)cc1" this time
7.52

Next molecule up: "Cc1cn([C@H]2C[C@@H](n3cc(CNC(=O)Nc4cccc(S(N)(=O)=O)c4)nn3)[C@@H](CO)O2)c(=O)[nH]c1=O"
8.03

One more molecule: "O=c1oc2c(O)c(O)cc3c(=O)oc4c(O)c(O)cc1c4c23"
5.20

Then there is this molecule:
Consider the molecule "O=C(O)c1ccc(O)cc1" and give its measured pKi.
3.15

----------
// cross-study collection: pKi for Carbonic anhydrase 7 (Homo sapiens)
# pKi is unitless: minus log10 of the molar concentration; print number only

Entry "Cc1cc(C)c2c(c1)NC(=O)NS2(=O)=O" has what pKi?
5.75

Record: "Oc1cc(F)ccc1F"
3.26

Another compound to look at: "COc1ccc(N/N=C(\C(C)=O)C(=O)Nc2ccc(S(N)(=O)=O)cc2)cc1"
5.44

What would you report for "CC(=O)/C(=C\c1cccc([N+](=O)[O-])c1)C(=O)Nc1ccc(S(N)(=O)=O)cc1" ?
7.33

Try this compound next: "O=C1Nc2c(Cl)cccc2S(=O)(=O)N1"
6.41

Moving on to "CC(=O)OC[C@H]1O[C@@H]([Se]c2ccc(NC(=O)c3ccc(Cl)c(S(N)(=O)=O)c3)cc2)[C@H](OC(C)=O)[C@@H](OC(C)=O)[C@@H]1OC(C)=O"
7.06

// repeat for "CC1(C)C=Cc2cc3ccc(=O)oc3cc2O1" and report
5.04

----------
// molecules with Ki on Carbonic anhydrase 7 (Homo sapiens, UniProt P43166), multi-source literature
Sequence (P43166 whole entry): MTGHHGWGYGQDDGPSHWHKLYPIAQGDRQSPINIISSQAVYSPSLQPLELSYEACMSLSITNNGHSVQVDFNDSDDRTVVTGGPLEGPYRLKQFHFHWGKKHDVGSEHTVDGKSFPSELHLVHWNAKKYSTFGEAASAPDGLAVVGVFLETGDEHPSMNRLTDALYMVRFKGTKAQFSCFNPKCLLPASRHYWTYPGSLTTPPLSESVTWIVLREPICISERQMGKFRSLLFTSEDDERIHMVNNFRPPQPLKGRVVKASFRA
Dear colleague, please return just the value in nM, with no unit written.

Worked examples, 6 molecules total:
What value of Ki has been recorded for this entry: "Nc1nccc(Nc2ccc(S(N)(=O)=O)cc2)n1"
6.8

Thanks! And "O=C(NCCNCCCNCCNC(=O)C(F)(F)F)C(F)(F)F" ?
108000

Field entry: "NS(=O)(=O)c1ccc(C(=O)Nc2ccc([Se][C@@H]3O[C@H](CO)[C@H](O)[C@H](O)[C@H]3O)cc2)cc1"
9.6

Repeat with "O=C1Nc2c(Br)cccc2S(=O)(=O)N1"
620

How about this molecule: "CCC(CC)C(=O)NCCc1ccc(S(N)(=O)=O)cc1"
51

Follow-up entry: "Nc1ccc(S(N)(=O)=O)cc1F"
75

Others:
What Ki value was documented for this molecule, "NS(=O)(=O)c1ccc(CCNC(=O)CN2C(=O)NC3(CCCCC3)C2=O)cc1" ?
6.9

Consider next the molecule Oc1ccc(C=Cc2cc(O)cc(O)c2)cc1 (mixture of isomers) in the same way.
8980

Now consider "CCCC(CCC)COS(N)(=O)=O" and answer again.
4300

Then this molecule: "Nc1ccc(S(=O)(=O)NCCc2ccc(S(N)(=O)=O)cc2)cc1"
6.5

----------
Let's look at some Ki data for UniProt P43166 that I collected from the literature.
Express the result in nM but write the number alone.

Would you please look over these solved cases?
For "NS(=O)(=O)c1ccc(CCNC(=O)CN2C(=O)NC3(CCCC3)C2=O)cc1" , what is its reported Ki?
4.7

Now try COC(=O)CCNS(=O)(=O)NC(C)c1ccccc1 (centres undefined) .
0.31

Could you do the same for "O=S(=O)(NC1CCCCC1)NC1CCCCC1" , please?
320

"NCCCNCCCCNCCCN" ?
710

Also check "NS(=O)(=O)c1ccc(CNC(=O)CN2C(=O)NC3(CCCC3)C2=O)cc1"
3.6

New cases:
Value lookup for Ki; key = "O=C1Nc2ccc(Br)cc2S(=O)(=O)N1"
468
